Below: a set of entries, each annotated with reported pKd.
# target: DLL3 (Homo sapiens, UniProt Q9NYJ7)
# protocol notes: SPR KD, biotinylated human DLL3 on streptavidin chip (Table 8)
# Set-up: biotin (biotinylated)
# experimental conditions: biotinylated human DLL3 on streptavidin sensor chip, 25° C., 1:1 binding model; read-out: SPR KD
pKd: −log10 of the molar value. Where a SMILES comes first, the peptide text is derived from it. Bridges are numbered along the chain shown (N, C = ends). [ ]: non-standard residue; d: D form. Bip = N[C@@H](Cc1ccc(-c2ccccc2)cc1)C(=O)O; Phe(4-F) = N[C@@H](Cc1ccc(F)cc1)C(=O)O; NMeT = CN[C@H](C(=O)O)[C@@H](C)O; NMeN = CN[C@@H](CC(N)=O)C(=O)O; Cba = N[C@@H](CC1CCC1)C(=O)O
measurement label: pKd

1) CC[C@H](C)[C@H](NC(=O)[C@H]([C@@H](C)O)N(C)C(=O)[C@H](Cc1c[nH]c2ccccc12)NC(C)=O)C(=O)N[C@H]1CSSC[C@@H](C(=O)N[C@@H](Cc2c[nH]c3ccccc23)C(=O)N2CCC[C@H]2C(N)=O)NC(=O)[C@H](CC(=O)O)NC(=O)[C@H](Cc2cnc[nH]2)NC(=O)[C@H](Cc2c[nH]c3ccccc23)NC(=O)[C@H](CC(N)=O)NC(=O)[C@H](CC(N)=O)NC1=O [compound 383] (Ac-W[NMeT]ICNNWHDCWP-NH2; disulfide 4-10): 6.52 to 7.00
2) CC[C@H](C)[C@H](NC(=O)[C@@H](NC(=O)[C@H](Cc1c[nH]c2ccccc12)NC(=O)[C@@H](C)NC(C)=O)[C@@H](C)O)C(=O)N[C@H]1CSSC[C@@H](C(=O)N[C@@H](Cc2c[nH]c3ccccc23)C(=O)N2CCC[C@H]2C(N)=O)NC(=O)[C@H](CC(=O)O)NC(=O)[C@H](Cc2cnc[nH]2)NC(=O)[C@H](Cc2c[nH]c3ccccc23)NC(=O)[C@H](CC(N)=O)NC(=O)[C@H](CC(N)=O)NC1=O [compound 2] (Ac-[dA]WTICNNWHDCWP-NH2; disulfide 5-11): 8.00 to 9.00
3) CC(=O)N[C@@H](Cc1c[nH]c2ccccc12)C(=O)N[C@H](C(=O)N[C@@H](CC1CCC1)C(=O)N[C@H]1CSSC[C@@H](C(=O)N[C@@H](Cc2c[nH]c3ccccc23)C(=O)N2CCC[C@H]2C(N)=O)NC(=O)[C@H](CC(=O)O)NC(=O)[C@H](Cc2cnc[nH]2)NC(=O)[C@H](Cc2c[nH]c3ccccc23)NC(=O)[C@H](CC(N)=O)NC(=O)[C@H](CC(N)=O)NC1=O)[C@@H](C)O [compound 341] (Ac-WT[Cba]CNNWHDCWP-NH2; disulfide 4-10): 8.00 to 9.00
4) CC[C@H](C)[C@H](NC(=O)[C@H](C)NC(=O)[C@H](Cc1c[nH]c2ccccc12)NC(=O)[C@H](CCSC)NC(C)=O)C(=O)N[C@H]1CSSC[C@@H](C(=O)N[C@@H](Cc2c[nH]c3ccccc23)C(=O)N2CCC[C@H]2C(N)=O)NC(=O)[C@H](CC(=O)O)NC(=O)[C@H](Cc2cnc[nH]2)NC(=O)[C@H](Cc2c[nH]c3ccccc23)NC(=O)[C@H](CC(N)=O)NC(=O)[C@H](CC(N)=O)NC1=O [compound 13] (Ac-MWAICNNWHDCWP-NH2; disulfide 5-11): 7.00 to 8.00
5) CC[C@H](C)[C@H](NC(=O)[C@@H](NC(=O)[C@H](Cc1ccc(F)cc1)NC(C)=O)[C@@H](C)O)C(=O)N[C@H]1CSSC[C@@H](C(=O)N[C@@H](Cc2c[nH]c3ccccc23)C(=O)N2CCC[C@H]2C(N)=O)NC(=O)[C@H](CC(=O)O)NC(=O)[C@H](Cc2cnc[nH]2)NC(=O)[C@H](Cc2c[nH]c3ccccc23)NC(=O)[C@H](CC(N)=O)NC(=O)[C@H](CC(N)=O)NC1=O [compound 214] (Ac-[Phe(4-F)]TICNNWHDCWP-NH2; disulfide 4-10): 6.52 to 7.00
6) CC[C@H](C)[C@H](NC(=O)[C@@H](NC(=O)[C@H](Cc1ccc(-c2ccccc2)cc1)NC(C)=O)[C@@H](C)O)C(=O)N[C@H]1CSSC[C@@H](C(=O)N[C@@H](Cc2c[nH]c3ccccc23)C(=O)N2CCC[C@H]2C(=O)O)NC(=O)[C@H](CC(=O)O)NC(=O)[C@H](Cc2c[nH]cn2)NC(=O)[C@H](Cc2c[nH]c3ccccc23)NC(=O)[C@H](CC(N)=O)NC(=O)[C@H](CC(N)=O)NC1=O [compound 333] (Ac-[Bip]TICNNWHDCWP-OH; disulfide 4-10): 6.52 to 7.00
7) CC[C@H](C)[C@H](NC(=O)[C@@H](NC(=O)[C@H](Cc1c[nH]c2ccccc12)NC(=O)[C@H](CCSC)NC(C)=O)[C@@H](C)O)C(=O)N[C@H]1CSSC[C@@H](C(=O)N[C@@H](Cc2c[nH]c3ccccc23)C(=O)N2CCC[C@H]2C(N)=O)NC(=O)[C@H](CC(=O)O)NC(=O)[C@@H](C)NC(=O)[C@H](Cc2c[nH]c3ccccc23)NC(=O)[C@H](CC(N)=O)NC(=O)[C@H](CC(N)=O)NC1=O [compound 72] (Ac-MWTICNNW[dA]DCWP-NH2; disulfide 5-11): 6.52 to 7.00
8) CC[C@H](C)[C@H](NC(=O)[C@@H](NC(=O)[C@H](Cc1c[nH]c2ccccc12)NC(=O)[C@H](CCSC)NC(C)=O)[C@@H](C)O)C(=O)N[C@H]1CSSC[C@@H](C(=O)N[C@@H](Cc2c[nH]c3ccccc23)C(=O)N2CCC[C@H]2C(N)=O)NC(=O)[C@H](CC(=O)O)NC(=O)[C@H](Cc2cnc[nH]2)NC(=O)[C@H](Cc2c[nH]c3ccccc23)NC(=O)[C@H](C)NC(=O)[C@H](CC(N)=O)NC1=O [compound 38] (Ac-MWTICNAWHDCWP-NH2; disulfide 5-11): 7.00 to 8.00
9) CC[C@H](C)[C@H](NC(=O)[C@@H](NC(=O)[C@H](Cc1c[nH]c2ccccc12)NC(C)=O)[C@@H](C)O)C(=O)N[C@H]1CSSC[C@@H](C(=O)N[C@@H](Cc2c[nH]c3ccccc23)C(=O)N2CCC[C@H]2C(=O)O)NC(=O)[C@H](CC(=O)O)NC(=O)[C@H](Cc2c[nH]cn2)NC(=O)[C@H](Cc2c[nH]c3ccccc23)NC(=O)[C@H](CC(N)=O)N(C)C(=O)[C@H](CC(N)=O)NC1=O [compound 385] (Ac-WTICN[NMeN]WHDCWP-OH; disulfide 4-10): 7.00 to 8.00
